Attribution: ChEMBL document CHEMBL4483862

# System: Plasmodium berghei
# experiment_notes: Luciferase/luciferin-expressing antifolate-resistant parasites were used to infect a culture of HepG2 cells that were pre-incubated with compounds. Infected hepatocytes emit light due to the luciferase reaction. Assay results are presented as the percent inhibition of light emission compared to control. […]
# Format: functional
# run_conditions: sporozoite, PBLUC_HILL_SLOPE 15.7, PBLUC_R_SQUARED 0.159, read-out: LUCIFERASE INFECTION ASSAY - IC50
endpoint_name: IC50 (µM)
Respond numerically; units are µM and should not be typed.

Notebook: Cc1ccc(Cn2nc(C)c(C(=O)Nc3nc4c(s3)CCCC4)c2Cl)cc1 , IC50 read as 9.13

* * *

# Test system: Plasmodium berghei
# experiment_notes: Luciferase/luciferin-expressing antifolate-resistant parasites were used to infect a culture of HepG2 cells that were pre-incubated with compounds. Infected hepatocytes emit light due to the luciferase reaction. Assay results are presented as the percent inhibition of light emission compared to control. […]
# Assay type: functional
# run_conditions: sporozoite, FFLUC_HILL_SLOPE 16.4, FFLUC_R_SQUARED 0.242, read-out: LUCIFERASE INFECTION ASSAY - IC50
endpoint_name: IC50

# value of IC50, Plasmodium berghei, item COc1ccc(N2C(=O)C=CC2=O)cc1 = > 16.2 µM

* * *

# Tested on: Plasmodium berghei
# experiment_notes: Luciferase/luciferin-expressing antifolate-resistant parasites were used to infect a culture of HepG2 cells that were pre-incubated with compounds. Infected hepatocytes emit light due to the luciferase reaction. Assay results are presented as the percent inhibition of light emission compared to control. […]
# Format: functional
# run_conditions: sporozoite, PBLUC_HILL_SLOPE 72.9, PBLUC_R_SQUARED 0.433, read-out: LUCIFERASE INFECTION ASSAY - IC50
endpoint_name: IC50 (nM)
Respond numerically; units are nM and should not be typed.

Notebook: COc1ccc(/C=C2\N=C(SCC(=O)O)N(Cc3ccccc3)C2=O)cc1 , IC50 read as 529

* * *

# Test system: Plasmodium berghei
# experiment_notes: Luciferase/luciferin-expressing antifolate-resistant parasites were used to infect a culture of HepG2 cells that were pre-incubated with compounds. Infected hepatocytes emit light due to the luciferase reaction. Assay results are presented as the percent inhibition of light emission compared to control. […]
# Assay type: functional
# run_conditions: sporozoite, HEPG2TOX_HILL_SLOPE 1.3, HEPG2TOX_R_SQUARED 0.854, PBLUC_HILL_SLOPE 1.74, PBLUC_R_SQUARED 0.806, read-out: LUCIFERASE INFECTION ASSAY - IC50
endpoint_name: pIC50
A value of pIC50 is the negative decimal logarithm of a concentration given in moles per litre.

Notebook: CCOc1cccc(-c2cn3c(-c4ccc(C(=O)NC5CC5)cc4)cnc3cn2)c1 , pIC50 read as 5.64

* * *

# Tested on: Plasmodium berghei
# experiment_notes: Luciferase/luciferin-expressing antifolate-resistant parasites were used to infect a culture of HepG2 cells that were pre-incubated with compounds. Infected hepatocytes emit light due to the luciferase reaction. Assay results are presented as the percent inhibition of light emission compared to control. […]
# Type: functional
# run_conditions: sporozoite, PBLUC_HILL_SLOPE 3.14, PBLUC_R_SQUARED 0.81, read-out: LUCIFERASE INFECTION ASSAY - IC50
endpoint_name: IC50 (µM)
Respond numerically; units are µM and should not be typed.

Notebook: CC(=O)Nc1cccc(-c2cn3c(-c4ccc(Cl)cc4)cnc3cn2)c1 , IC50 read as 1.83

* * *

# Test system: Plasmodium berghei
# experiment_notes: Luciferase/luciferin-expressing antifolate-resistant parasites were used to infect a culture of HepG2 cells that were pre-incubated with compounds. Infected hepatocytes emit light due to the luciferase reaction. Assay results are presented as the percent inhibition of light emission compared to control. […]
# Assay type: functional
# run_conditions: sporozoite, HEPG2TOX_HILL_SLOPE 12.8, HEPG2TOX_R_SQUARED 0.528, PBLUC_HILL_SLOPE 15.6, PBLUC_R_SQUARED 0.425, read-out: LUCIFERASE INFECTION ASSAY - IC50
endpoint_name: pIC50
A value of pIC50 is the negative decimal logarithm of a concentration given in moles per litre.

# value of pIC50, Plasmodium berghei, item CC(C)c1c(C(=O)NNC(=O)c2ccc3ccccc3n2)cnn1-c1ccccc1 = 5.48

* * *

# Test system: Plasmodium berghei
# experiment_notes: Luciferase/luciferin-expressing antifolate-resistant parasites were used to infect a culture of HepG2 cells that were pre-incubated with compounds. Infected hepatocytes emit light due to the luciferase reaction. Assay results are presented as the percent inhibition of light emission compared to control. […]
# Format: functional
# run_conditions: sporozoite, HEPG2TOX_HILL_SLOPE 2.19, HEPG2TOX_R_SQUARED 0.99, PBLUC_HILL_SLOPE 12.4, PBLUC_R_SQUARED 0.482, read-out: LUCIFERASE INFECTION ASSAY - IC50
endpoint_name: pIC50
A value of pIC50 is the negative decimal logarithm of a concentration given in moles per litre.

Notebook: c1ccc(-c2cn3ccnc3c(NCc3ccncc3)n2)cc1 , pIC50 read as 5.42

* * *

# Tested on: Plasmodium berghei
# experiment_notes: Luciferase/luciferin-expressing antifolate-resistant parasites were used to infect a culture of HepG2 cells that were pre-incubated with compounds. Infected hepatocytes emit light due to the luciferase reaction. Assay results are presented as the percent inhibition of light emission compared to control. […]
# Format: functional
# run_conditions: sporozoite, PBLUC_HILL_SLOPE 12.4, PBLUC_R_SQUARED 0.25, read-out: LUCIFERASE INFECTION ASSAY - IC50
pIC50: −log10 of the molar value.
endpoint_name: pIC50

Notebook: COc1ccc(-c2nc(CN(c3ccccc3)S(=O)(=O)c3ccccc3)co2)cc1 , pIC50 read as < 5.00

* * *

# Tested on: Plasmodium berghei
# experiment_notes: Luciferase/luciferin-expressing antifolate-resistant parasites were used to infect a culture of HepG2 cells that were pre-incubated with compounds. Infected hepatocytes emit light due to the luciferase reaction. Assay results are presented as the percent inhibition of light emission compared to control. […]
# Type: functional
# run_conditions: sporozoite, HEPG2TOX_HILL_SLOPE 73.2, HEPG2TOX_R_SQUARED 0.451, PBLUC_HILL_SLOPE 8.64, PBLUC_R_SQUARED 0.375, read-out: LUCIFERASE INFECTION ASSAY - IC50
endpoint_name: IC50
Write down the value, and be sure its unit follows.

# value of IC50, Plasmodium berghei, item N#Cc1ccc(NC(=O)Cn2ncc(Cl)c(Cl)c2=O)cc1 = 4.06 µM

* * *

# Test system: Plasmodium berghei
# experiment_notes: Luciferase/luciferin-expressing antifolate-resistant parasites were used to infect a culture of HepG2 cells that were pre-incubated with compounds. Infected hepatocytes emit light due to the luciferase reaction. Assay results are presented as the percent inhibition of light emission compared to control. […]
# Assay type: functional
# run_conditions: sporozoite, PBLUC_HILL_SLOPE 2.98, PBLUC_R_SQUARED 0.592, read-out: LUCIFERASE INFECTION ASSAY - IC50
endpoint_name: pIC50
A value of pIC50 is the negative decimal logarithm of a concentration given in moles per litre.

Notebook: COc1ccccc1C(=O)Nc1c(C#N)cnn1-c1nc(C)cc(C)n1 , pIC50 read as 5.42

* * *

# System: Plasmodium berghei
# experiment_notes: Luciferase/luciferin-expressing antifolate-resistant parasites were used to infect a culture of HepG2 cells that were pre-incubated with compounds. Infected hepatocytes emit light due to the luciferase reaction. Assay results are presented as the percent inhibition of light emission compared to control. […]
# Type: functional
# run_conditions: sporozoite, FFLUC_HILL_SLOPE 3.45, FFLUC_R_SQUARED 0.514, PBLUC_HILL_SLOPE 3.38, PBLUC_R_SQUARED 0.0773, read-out: LUCIFERASE INFECTION ASSAY - IC50
endpoint_name: pIC50
A value of pIC50 is the negative decimal logarithm of a concentration given in moles per litre.

Notebook: O=C(Nc1ccc(Oc2ccc([N+](=O)[O-])c3cnccc23)cc1)c1ccccc1 , pIC50 read as 5.13

* * *

# Test system: Plasmodium berghei
# experiment_notes: Luciferase/luciferin-expressing antifolate-resistant parasites were used to infect a culture of HepG2 cells that were pre-incubated with compounds. Infected hepatocytes emit light due to the luciferase reaction. Assay results are presented as the percent inhibition of light emission compared to control. […]
# Type: functional
# run_conditions: sporozoite, FFLUC_HILL_SLOPE 16.2, FFLUC_R_SQUARED 0.398, PBLUC_HILL_SLOPE 15.9, 4.17, PBLUC_R_SQUARED 0.757, 0.868, read-out: LUCIFERASE INFECTION ASSAY - IC50
endpoint_name: IC50 (µM)
Respond numerically; units are µM and should not be typed.

Notebook: Cc1nc(Nc2ccc(C(=O)N(C)C)cc2)c2c(-c3ccccc3)csc2n1 , IC50 read as 7.45
